compound	melting point
CC(=O)c1nn(-c2c(Cl)cc(C(F)(F)F)cc2Cl)c(N)c1S(C)=O (stereo unspecified)	166 °C
O=C(O)C(OCc1ccc(-c2ccc(Cl)cc2)cc1)c1ccc(Cl)cc1 (stereo unspecified)	120 to 122 °C
CC(C)(C)Nc1c(NCc2cc3cc([N+](=O)[O-])ccc3o2)c(=O)c1=O	> 300 °C
CCOC(=O)c1cn(-c2ccc(F)cc2F)c2nc(OC)c(F)cc2c1=O	190 to 192 °C
Cc1ccc(-c2nc(CN3CCN(C(c4ccccc4)c4ccccc4)CC3)c(C)[nH]2)cc1	238 °C
O=C(O)c1ccc2cc(-c3cc4c(c(C56CC7CC(CC(C7)C5)C6)c3)OCO4)ccc2c1	300 to 305 °C
CCN(CC)c1ccc(C(=O)c2ccccc2C(=O)O)cc1	184 °C
CCOC(=O)c1ccc(COCc2csc3nc(C(=O)NCc4cccc(CS(C)(=O)=O)c4)[nH]c(=O)c23)cc1	227 to 229 °C
O[C@@H]1CN(Cc2ccccc2)C[C@H]1Sc1ccccc1 (relative stereo)	97 to 99 °C
COc1ccc(-c2ccc(COCCc3cccc(NS(=O)(=O)C(F)(F)F)c3)cc2)cc1	96 to 98 °C
CC(C)=NNC(=O)NCCCN(C)C	49 to 53 °C
COCCNC(=O)c1cc(-c2cccc3cc(Cc4cc(F)cc(Cl)c4)sc23)ccc1F	84 to 85 °C
CCOC(=O)C(=O)CC(=O)c1cn(Cc2ccncc2)c2ccccc2c1=O	168 to 169 °C
CCCCCCCCCCOc1ccc(O)c(C(=O)OC)c1	40 to 43 °C
CC(C)c1c(O)cccc1O	79 to 82 °C
CCOC(=O)c1ccc(C#CCO)cc1	58 to 60 °C
COc1cc(NC(=O)N(O)C(C)C)cc(OC)c1OC	140 to 141 °C
O=C(Sc1ccccn1)c1ccncc1	115 °C
NC(=O)NN=C1CC(O)C(C=Cc2ccccc2)=C1CCCCCCC(=O)O (stereo unspecified)	208 to 210 °C
CCOC(=O)c1cn(CCBr)c2nc(N3CCN(C(C)=O)CC3)ncc2c1=O	202 to 204 °C
COc1ccc2ccccc2c1CN1CCC(=O)C(C(c2ccc(F)cc2)c2ccc(F)cc2)C1 (stereo unspecified)	125 to 126 °C
